target: DRB5*0101 (Homo sapiens, UniProt P01903+Q30154); experiment: biochemical
Endpoint: IC50 (µM)
Give bare numbers, in µM.

Which measured IC50 value corresponds to CC[C@H](C)[C@H](NC(=O)[C@H](CCC(=O)O)NC(=O)CNC(=O)[C@H](CCCNC(=N)N)NC(=O)[C@H](CCCCN)NC(=O)[C@@H](N)CC(C)C)C(=O)N[C@H](C(=O)N[C@@H](Cc1c[nH]cn1)C(=O)N[C@@H](Cc1c[nH]cn1)C(=O)N[C@@H](C)C(=O)N[C@H](C(=O)N[C@@H](CO)C(=O)N[C@@H](CCCNC(=N)N)C(=O)NCC(=O)N[C@@H](CO)C(=O)N[C@@H](C)C(=O)N[C@@H](CCCCN)C(=O)O)C(C)C)[C@@H](C)O [NS5 45-61] ?
0.449

* * *

target: DRB5*0101 (Homo sapiens, UniProt P01903+Q30154); experiment: biochemical
Endpoint: pIC50
Answers are plain numbers, as −log10 of the molar value.

Record pIC50 per entry; entries follow.
1. CC[C@H](C)[C@H](NC(=O)[C@H](C)NC(=O)CNC(=O)[C@@H](NC(=O)[C@H](CCC(=O)O)NC(=O)CN)[C@@H](C)CC)C(=O)N[C@@H](C)C(=O)N[C@@H](CC(C)C)C(=O)N[C@@H](CC(=O)O)C(=O)N[C@@H](Cc1ccccc1)C(=O)N[C@@H](CCCCN)C(=O)N1CCC[C@H]1C(=O)NCC(=O)N[C@H](C(=O)N[C@@H](CO)C(=O)O)[C@@H](C)O
2. CC(C)[C@H](NC(=O)[C@H](CCC(=O)O)NC(=O)[C@H](Cc1ccc(O)cc1)NC(=O)[C@H](CO)NC(=O)CNC(=O)[C@H](Cc1c[nH]cn1)NC(=O)[C@H](Cc1ccc(O)cc1)NC(=O)[C@H](C)NC(=O)[C@H](Cc1c[nH]c2ccccc12)NC(=O)[C@@H](NC(=O)[C@H](CCCCN)NC(=O)[C@H](Cc1ccc(O)cc1)NC(=O)[C@@H]1CCCN1C(=O)[C@H](CC(N)=O)NC(=O)[C@H](CCC(=O)O)NC(=O)[C@@H](N)CC(=O)O)[C@@H](C)O)C(=O)N[C@@H](CCCCN)C(=O)O
3. CC[C@H](C)[C@H](N)C(=O)N[C@H](C(=O)NCC(=O)N[C@H](C(=O)N[C@@H](CC(C)C)C(=O)N[C@@H](CCC(=O)O)C(=O)N[C@@H](CCC(N)=O)C(=O)NCC(=O)N[C@@H](CCCCN)C(=O)N[C@@H](CCCNC(=N)N)C(=O)N[C@H](C(=O)N[C@@H](CC(C)C)C(=O)N[C@H](C(=O)N1CCC[C@H]1C(=O)N[C@@H](CCC(N)=O)C(=O)O)[C@@H](C)O)[C@@H](C)O)C(C)C)[C@@H](C)CC

1: 4.92; 2: 5.28; 3: 5.51

* * *

So I've got a bunch of molecules here, and I need their IC50 values.
biological target: DRB1*0301 (Homo sapiens, UniProt P01903+P01911, A100K/A102G/A103R/A169T/F55Y/I96L/K41T/L162R/M171V/P40S/Q125H/Q178H/Q39Y/R42S/S66N/T106N/T262R/W38E/Y61H); experiment: biochemical
Sequence (P01903 26-254, other chains not shown): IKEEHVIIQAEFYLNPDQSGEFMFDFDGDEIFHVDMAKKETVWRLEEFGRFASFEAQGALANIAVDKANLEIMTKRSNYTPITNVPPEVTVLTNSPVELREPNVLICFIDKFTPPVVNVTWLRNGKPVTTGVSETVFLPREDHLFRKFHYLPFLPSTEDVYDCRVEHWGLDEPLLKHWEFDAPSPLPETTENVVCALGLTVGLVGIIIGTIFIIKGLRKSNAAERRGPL
Give bare numbers, in nM.

Please state, for each entry, its recorded IC50.
1. CC(C)C[C@H](NC(=O)[C@@H](NC(=O)CNC(=O)[C@H](CC(N)=O)NC(=O)[C@H](CO)NC(=O)[C@H](Cc1c[nH]c2ccccc12)NC(=O)[C@H](CC(C)C)NC(=O)[C@@H](NC(=O)[C@H](Cc1c[nH]cn1)NC(=O)[C@H](CO)NC(=O)[C@H](CCCCN)NC(=O)[C@@H]1CCCN1C(=O)[C@@H](N)Cc1c[nH]c2ccccc12)[C@@H](C)O)C(C)C)C(=O)N[C@@H](CCC(=O)O)C(=O)N[C@@H](CO)C(=O)O
2. CC(C)C[C@H](NC(=O)[C@H](C)NC(=O)[C@H](CC(C)C)NC(=O)[C@@H]1CCCN1)C(=O)N[C@@H](CCCCN)C(=O)N[C@@H](CCC(=O)O)C(=O)N[C@@H](Cc1ccccc1)C(=O)N[C@@H](CCCCN)C(=O)N[C@@H](CC(=O)O)C(=O)N[C@@H](Cc1ccccc1)C(=O)N[C@@H](C)C(=O)N[C@@H](C)C(=O)NCC(=O)N[C@@H](CCCNC(=N)N)C(=O)N[C@@H](CCCCN)C(=O)O
3. CC[C@H](C)[C@H](NC(=O)[C@H](CC(C)C)NC(=O)[C@H](CC(N)=O)NC(=O)[C@H](Cc1ccc(O)cc1)NC(=O)[C@H](CC(N)=O)NC(=O)[C@@H]1CCCN1)C(=O)N[C@H](C(=O)N[C@@H](CCSC)C(=O)N[C@@H](CC(=O)O)C(=O)N[C@@H](CCC(=O)O)C(=O)N[C@@H](C)C(=O)N[C@@H](Cc1c[nH]cn1)C(=O)N[C@@H](Cc1ccccc1)C(=O)N[C@H](C(=O)N[C@@H](CC(=O)O)C(=O)O)[C@@H](C)O)[C@@H](C)CC

1: 520; 2: 4440; 3: 37
